# TEST SUMMARY: soluble on expression in E. coli; label from the status in PepcDB or PDB records
READOUT NAME: soluble on expression in E. coli

BIOPOLYMER SEQUENCE	READOUT VALUE
LGQTAYQKDSLARLARRGDELGTLARDFNRMGERLQSLIGSQRQLLRDVSHELRSPLARLRIALALAERAEPEARAQMWPRLEQECDRLEALIGEILALARLDAEPGASQRIALLPLLQRLREDALLLAPEQDIRLEVAPDLSIDGWPDMFERAVDNLLRNAVRFNPVGQPLEVRASSAGDYLRLSVRDHGPGIAAELQEQLGEPFFRAPNQSSPGHGLGLAIARRAIERHGGHLRLGNHPDGGFIATLSLPLRRKAT	not soluble
MIFKVGDTVVYPHHGAALIEAIETRTIKGEQKEYLVLKVAQGDLTVRVPADNAEYVGVRDVVGQEGLDKVFQVLRAPHTEEPTNWSRRYKANLEKLASGDVNKVAEVVRDLWRREQDRGLSAGEKRMLAKARQILVGELALAEGTDSDKAETILDEVLAAAS	not soluble
SLKIRERFSMVDLPVLIITAAIIGHDKYKAFHAGANDILQKPYHYSEFMARIQNLIMMKHTANQATRMEMAFLQSQIKPHFLYNVLNTIISLTHLDIEKAREVTEEFTNYLRMSFDFQNTSAISSFRHELSIINSYLSIEKTRFSNRLEVLFDIDEDIDFILPPLMIQPLVENAVLHGVSKKRGGGWIKLTAKKQSKNEYHIKVEDNGPGITPEKQIDLLSTDFDRSVGLKNINQRLKHFCGSELMISSTPDAGTSVSMLIHLAETTGSPKELKDTERT	soluble
GDVVEAVENAVARVADTIGSGPSNSQAVPALTAVETGHTSQVTPSDTVQTRHVKNYHSRSESSIENFLSRSACVYMGEYHTTNSDQTKLFASWTISARRMVQMRRKLEIFTYVRFDVEVTFVITSKQDQGTQLGQDMPPLTHQIMYIPPGGPIPKSVTDYTWQTSTNPSIFWTEGNAPPRMSIPFISIGNAYSNFYDGWSHFSQNGVYGYNTLNHMGQIYVRHVNGSSPLPMTSTVRMYFKPKHVKAWVPRPPRLCQYKNASTVNFSPTDITDKRNSITYIPDTVKPDVSNH	soluble
MIEFSENSHRKSLIEELPRIVERGEKEAQKILDGLSKSQRITLQTNELVLPTKAIGELNKFYGQTIKTENNNEFLNRLIYGDNLLAMQAFLAGDPETGLPSMRGKIDLIYIDPPFDSKANYRTKIHLPTADVEQMPSVIEQFAYSDTWKDGTKSYLEMIVPRLVLMKELLSEKGSIYVHIDWHVGHYVKVIMDEIFGRENFVNEIVWKKTNSPKAQSKGFGTQHDVLYIYRKTPQFIFNQIKKEPDEDYLKSYVYDDNDGRGPYQTVALVAGGIQRSENRKIFEFHGVRAPWLYSLENLERFWSDGRIFKTKTGYRLKVYLKDIALRLYLIYGLTRK	not soluble
MSDPVADFLAREQNLFADFDGAPPAAAAANPDAPEADAPAPALDDDFGDLQIAGDEPPPVVHPTDSGVDLDGLVDDNAAAPAIVVPAVEPMVNGNHSASSGGSKGPSPILSTVPRIEAEKIRLWKAQQEQLLSKKDEAEEKKKIELRANAKKELEEWYKQREKTLQLSHDENLKNEKSNQELFAKQQDGDAQWETVNKLVDQQKSKSGKDLSRLKTLLAGLKHAGK	not soluble
